molecular target: MEK1^CA (human GST-MEK1, constitutively active, Ser218Asp and Ser222Asp) (Homo sapiens, UniProt Q02750, S218D/S222D); construct: GST; made in house; host or cells: Escherichia coli; experiment: MEK1 enzymatic activity assay (MEK1^CA / ERK2 / MBP, [γ-33P]ATP incorporation); assay type: biochemical; conditions: Table 1, compounds of formula I; read-out: Avg IC50
Sequence (Q02750 whole entry S218D/S222D): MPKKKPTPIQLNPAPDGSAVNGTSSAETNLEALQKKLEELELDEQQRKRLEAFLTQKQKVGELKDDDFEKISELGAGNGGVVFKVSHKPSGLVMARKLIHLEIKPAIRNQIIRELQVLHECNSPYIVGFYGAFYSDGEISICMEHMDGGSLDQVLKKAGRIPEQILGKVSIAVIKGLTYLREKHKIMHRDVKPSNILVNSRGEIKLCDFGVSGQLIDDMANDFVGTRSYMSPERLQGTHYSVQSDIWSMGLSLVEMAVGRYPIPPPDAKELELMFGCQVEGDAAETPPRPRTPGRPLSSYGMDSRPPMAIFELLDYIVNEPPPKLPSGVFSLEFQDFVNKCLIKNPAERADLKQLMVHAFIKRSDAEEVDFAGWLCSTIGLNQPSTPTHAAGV
Metric: IC50

Here is how some molecules turned out for IC50.
CC(C)NC(=N)c1c(O)nsc1Nc1ccc(Oc2cc(Cl)cc(Cl)c2)cc1	1 to 100 nM
CCC(CO)NC(=N)c1c(O)nsc1Nc1ccc(Oc2cc(F)cc(F)c2)cc1C (stereo not drawn)	1 to 100 nM
CCOC(=O)c1cccc(Oc2ccc(Nc3snc(O)c3C(=N)NC(C)C)cc2)c1	1 to 100 nM

Exercise: Quick check: IC50 of `Cc1cc(Oc2ccc(Cl)cc2F)ccc1Nc1snc(O)c1C(=N)NC(C)C` ?
Key: 1 to 100 nM

Exercise: // repeat for N=C(NCC(O)CO)c1c(O)nsc1Nc1ccccc1F (stereo not drawn) and report
Key: > 500 nM

Exercise: // repeat for `N=C(N)c1c(O)nsc1Nc1ccc(Oc2ccccc2)cc1` and report
Key: 100 to 500 nM

Exercise: // repeat for `N=C(NCC1CCCCC1)c1c(O)nsc1Nc1ccc(Oc2cc(Cl)ccc2Cl)cc1` and report
Key: 1 to 100 nM

Exercise: // repeat for Cc1cc(Oc2ccccc2)ccc1Nc1snc(O)c1C(=N)NC(C)CO (stereo not drawn) and report
Key: 1 to 100 nM

Exercise: // repeat for `COC(=O)c1cccc(Nc2snc(O)c2C(=N)NCC(O)O)c1C` and report
Key: 100 to 500 nM

###

Target: MEK1^CA (human GST-MEK1, constitutively active, Ser218Asp and Ser222Asp) (Homo sapiens, UniProt Q02750, S218D/S222D)
Construct: GST; made in house; host or cells: Escherichia coli
Experiment: MEK1 enzymatic activity assay (MEK1^CA / ERK2 / MBP, [γ-33P]ATP incorporation)
Type: biochemical
Settings: Table 1, compounds of formula I; read-out: Avg IC50
Excerpt: Materials and preparation of reagents: Human GST-MEK1 and the constitutively active allele GST-MEK1^CA (harboring the mutations Ser218Asp and Ser222Asp) were subcloned into the […] expression vector pGEM4Z (Promega, Madison, Wis.) from the wild type human MEK1 cDNA. GST-MEK1^CA was expressed in Escherichia coli and partially purified using Glutathione Sepharose 4B affinity resin (Amersham Pharmacia Biotech, Piscataway, N.J.). […]
pIC50: −log10 of the molar value.
Metric: pIC50

Here is how some compounds turned out for pIC50.
CCOC(=O)N1CCC(NC(=N)c2c(O)nsc2Nc2ccc(Oc3ccccc3)cc2)CC1	6.30 to 7.00
CC(C)c1ccc(Nc2snc(O)c2C(N)=NCC2CCCCC2)cc1	< 6.30
Cc1ccc(Oc2ccc(Nc3snc(O)c3C(=N)NC(C)C)cc2)cn1	< 6.30
CCC[C@H]1CC[C@H](c2ccc(Nc3snc(O)c3C(=N)NCCO)cc2)CC1	< 6.30
Cc1cc(Oc2cccc(C(F)(F)F)c2)ccc1Nc1snc(O)c1C(=N)NC(C)CO (stereo not drawn)	7.00 to 9.00
CC(C)NC(=N)c1c(O)nsc1Nc1ccc(C2CCCCC2)cc1	6.30 to 7.00
CC(CO)NC(=N)c1c(O)nsc1Nc1ccc(Oc2cccc(Cl)c2)cc1 (stereo not drawn)	7.00 to 9.00
CC(C)NC(=N)c1c(O)nsc1Nc1ccc(Oc2ccccc2Br)c(Cl)c1	7.00 to 9.00
Cc1ccc(Oc2ccc(Nc3snc(O)c3C(=N)NCC3CCCCC3)cn2)cn1	< 6.30
N=C(NCc1ccccn1)c1c(O)nsc1Nc1ccc(Oc2cc(Cl)ccc2Cl)cc1	7.00 to 9.00

Exercise: Quick check: pIC50 of CC(CO)NC(=N)c1c(O)nsc1Nc1ccc(Oc2ccccc2Br)c(Cl)c1 (stereo not drawn) ?
Key: 7.00 to 9.00

Exercise: // repeat for CC(CO)NC(=N)c1c(O)nsc1Nc1ccc(Oc2cccc3ccccc23)cc1 (stereo not drawn) and report
Key: 7.00 to 9.00

Exercise: // repeat for `Cc1cc(Oc2ccc(F)cc2Cl)ccc1Nc1snc(O)c1C(=N)NC(C)C` and report
Key: 7.00 to 9.00
